src = patent US20220324835A1

Entries annotated with measured IC50
# TARGET DESC: Cbl-b (Homo sapiens)
# ASSAY DETAILS: Cbl-b inhibition assay (Cbl-b activity assay, FRET, Biological Example 1; 100 mM NaCl, 60 nM Src kinase)
# Format: biochemical
# APPLIED CONDITIONS: upper bound stated in text lists; read-out: IC50 values in the Cbl-b inhibition assay of Biological Example 1

Examples with answers:
COMPOUND | TARGET DESC | IC50
C[C@@H](c1cc2c(c(C(F)(F)F)c1)CN(c1cccc(C3(Cc4nncn4C)COC3)c1)C2=O)N1CCC(F)(F)C1 [Compound 420] | Cbl-b (Homo sapiens) | ≤ 100 nM
Cn1cnnc1CC1(c2cccc(NC(=O)c3cc(CN4C[C@H]5C[C@H]5C4)cc(C4CC4)n3)c2)COC1 [Compound 498] | Cbl-b (Homo sapiens) | ≤ 100 nM
C[C@H](Sc1nncn1C)c1cccc(NC(=O)c2cc3c(Cl)cccc3[nH]2)c1 [Compound 78] | Cbl-b (Homo sapiens) | ≤ 500 nM
CN[C@@H]1CCN(C(=O)c2ccnc(C(=O)Nc3cccc([C@H](C)Cc4nncn4C)c3)c2)C1 [Compound 249] | Cbl-b (Homo sapiens) | ≤ 10000 nM
CC(Cc1nncn1C)c1cc(F)cc(N2Cc3c(cccc3C(F)(F)F)C2=O)c1 (stereo not shown) [Compound 281] | Cbl-b (Homo sapiens) | ≤ 500 nM
C[C@H](c1cc2c(c(C(F)(F)F)c1)CN(c1cccc(C3([C@H](F)c4nncn4C)COC3)c1)C2=O)N1CCC2(CC2)C1 (single isomer, unassigned) [Compound 516] | Cbl-b (Homo sapiens) | ≤ 100 nM

Next, consider the following compound.
Quick note, IC50 for C[C@H](Sc1nncn1C)c1cccc(NC(=O)c2cc(C(=O)N3CC[C@H](O)C3)ccn2)c1 [Compound 140] landed at ≤ 500 nM

====

# Tested on: T-cell
# ASSAY DETAILS: IL-2 secretion from T-cells co-stimulated with anti-CD3 and anti-CD28 antibody (Biological Example 2)
# Type: cell-based, human
# APPLIED CONDITIONS: Homo sapiens, T-cell, 1 μM compound; primary human total T-cells; baseline = anti-CD3/anti-CD28 stimulated cells without inhibitor; read-out: IL-2 secretion, Anti-CD3/Anti-CD28 stimulation, fold change over baseline
Recorded fold induction at 1 µM for the following molecules

MOLECULE | fold induction at 1 µM
C[C@H](CO)Nc1cc([C@H](C)Cc2nncn2C)cc(N2Cc3c(cccc3C(F)(F)F)C2=O)n1 | 2.51 to 5
Cn1cnnc1CC1(c2cccc(N3Cc4c(cc(CN5C[C@H]6C[C@H]6C5)cc4C(F)(F)F)C3=O)c2)COC1 | > 7.5
Cn1cnnc1[C@H](F)[C@](C)(F)c1cccc(N2Cc3c(cc(C4CC4)cc3C(F)(F)F)C2=O)c1 [Compound 481a] | 1.01 to 2.5
Cc1cc(C(=O)Nc2cccc(C3(Cc4nocc4C)COC3)c2)nc(C2CC2)n1 | > 7.5
Cn1cnnc1C[C@@]1(c2cccc(N3Cc4c(cc(CN5CCC6(CC6)C5)cc4C(F)(F)F)C3=O)c2)CCOC1 (single isomer, unassigned) [Compound 517a] | > 7.5

// sample C[C@@H](c1cccc(N2Cc3c(cccc3C(F)(F)F)C2=O)c1)C(F)c1nncn1C (stereo in doubt) , its fold induction at 1 µM was 1.01 to 2.5

Value of measured fold induction at 1 µM for the entry Cn1cnnc1CC1(c2cccc(NC(=O)c3cc(CN4CCC5(CC5)C4)cc(C4CC4)n3)c2)COC1 : > 7.5

====

# Tested on: T-cell
# ASSAY DETAILS: CD25 cell surface staining on T-cells co-stimulated with anti-CD3 and anti-CD28 antibody (Biological Example 2)
# Type: cell-based, human
# APPLIED CONDITIONS: Homo sapiens, T-cell, 4 μM compound; primary human total T-cells; baseline = anti-CD3/anti-CD28 stimulated cells without inhibitor; read-out: CD25 staining, Anti-CD3/Anti-CD28 stimulation, fold change over baseline
Reported fold induction at 4 µM values for a set of compounds

COMPOUND | fold induction at 4 µM
Cn1cnnc1CC1(c2cccc(N3Cc4c(cc(CN5C[C@H]6C[C@H]6C5)cc4C(F)(F)F)C3=O)c2)COC1 [Compound 429] | 1.51 to 1.75

Recorded fold induction at 4 µM (compound Cn1cnnc1C(F)(F)[C@](C)(F)c1cccc(N2Cc3c(cc(CN4CCC(F)(F)C4)cc3C(F)(F)F)C2=O)c1 [Compound 448] ): 1.31 to 1.5

The compound C[C@H](Cc1nncn1C)c1cccc(N2Cc3c(cc(CN4CC(O)C4)cc3C(F)(F)F)C2=O)c1 [Compound 393] showed fold induction at 4 µM equal to 1.31 to 1.5

Lab note: C[C@H](Cc1nncn1C)c1cccc(N2Cc3c(cc(CN4CCC(F)(F)C4)cc3C(F)(F)F)C2=O)c1 [Compound 396] gave fold induction at 4 µM of 1.31 to 1.5

The compound listed as Cn1cnnc1CC1(c2cccc(N3Cc4c(cc(CN5CC[C@H](F)C5)cc4C(F)(F)F)C3=O)c2)COC1 [Compound 410] has a reported fold induction at 4 µM of 1.51 to 1.75

Short answer for Cn1cnnc1C(F)(F)[C@](C)(F)c1cccc(N2Cc3c(cc(CN4CC[C@H](S(C)(=O)=O)C4)cc3C(F)(F)F)C2=O)c1 [Compound 457] : fold induction at 4 µM was 1.01 to 1.3

Lookup result for C[C@@H](c1cc2c(c(C(F)(F)F)c1)CN(c1cccc([C@@](C)(F)C(F)(F)c3nncn3C)c1)C2=O)N1CC[C@H](F)C1 [Compound 460] ; measured fold induction at 4 µM: 1.51 to 1.75

====

The reader will find reported IC50 values listed item by item below.
# TARGET DESC: Cbl-b (Homo sapiens)
# ASSAY DETAILS: Cbl-b inhibition assay (Cbl-b activity assay, FRET, Biological Example 1; 100 mM NaCl, 60 nM Src kinase)
# Type: biochemical
# APPLIED CONDITIONS: upper bound stated in text lists; read-out: IC50 values in the Cbl-b inhibition assay of Biological Example 1

Worked cases, IC50 given:
COMPOUND | IC50
CC(C)c1cccc(C(=O)Nc2cccc([C@H](C)Sc3nncn3C)c2)n1 [Compound 33] | ≤ 500 nM
C[C@H](Cc1nncn1C)c1cc(F)cc(N2Cc3c(cccc3C(F)(F)F)C2=O)c1 [Compound 281a] | ≤ 500 nM
C[C@H](Cc1nncn1C)c1cccc(N2Cc3c(cc([C@@H]4CCCNC4)cc3C(F)(F)F)C2=O)c1 [Compound 382] | ≤ 300 nM

Lab book: IC50 of Cn1cnnc1C(F)(F)[C@](C)(F)c1cccc(N2Cc3c(cc(CN4CC[C@H](F)C4)cc3C(F)(F)F)C2=O)c1 [Compound 447] noted as ≤ 100 nM

====

# TARGET DESC: Cbl-b (Homo sapiens)
# ASSAY DETAILS: Cbl-b activity assay (Cbl-b inhibition assay), TR-FRET of Cbl-b interaction with UbcH5B-Ub
# Assay type: biochemical
# APPLIED CONDITIONS: assay buffer with 100 mM NaCl, 60 nM Src kinase; read-out: Cbl-b activity IC50
Reported IC50 is given for each of the following compounds.

COMPOUND | TARGET DESC | IC50
Cn1cnnc1CC1(c2cccc(N3Cc4c(cc(CN5CCC[C@H](F)C5)cc4C(F)(F)F)C3=O)c2)COC1 [Compound 432] | Cbl-b (Homo sapiens) | < 100 nM

Cc1cn(C)c(SC(C)c2ccnc(NC(=O)c3ccc4ccccc4n3)c2)n1 (stereo not shown) [Compound 129] has a reported IC50 of > 10000 nM

The compound listed as Cc1conc1C[C@H](C)c1cccc(NC(=O)c2ccnc(C(F)(F)F)n2)c1 [Compound 213b] has a reported IC50 of 3000 to 10000 nM

Kindly note the recorded IC50 for C[C@@H](c1cccc(N2Cc3c(cccc3C(F)(F)F)C2=O)c1)C(F)(F)c1nncn1C [Compound 467a] , which is 100 to 300 nM

====

# TARGET DESC: Cbl-b (Homo sapiens, UniProt Q13191)
# Sequence (Q13191 36-427): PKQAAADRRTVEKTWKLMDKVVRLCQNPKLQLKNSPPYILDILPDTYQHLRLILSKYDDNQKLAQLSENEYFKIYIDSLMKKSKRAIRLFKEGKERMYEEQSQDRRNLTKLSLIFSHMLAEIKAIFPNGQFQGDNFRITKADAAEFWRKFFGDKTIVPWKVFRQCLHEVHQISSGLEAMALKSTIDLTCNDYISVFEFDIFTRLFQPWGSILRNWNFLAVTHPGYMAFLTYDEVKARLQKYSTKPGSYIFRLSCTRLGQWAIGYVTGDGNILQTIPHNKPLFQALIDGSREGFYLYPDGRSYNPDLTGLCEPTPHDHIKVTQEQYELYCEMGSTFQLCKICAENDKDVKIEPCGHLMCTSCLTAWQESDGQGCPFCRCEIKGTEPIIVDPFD
# ASSAY DETAILS: Cbl-b activity assay (Cbl-b inhibition assay), TR-FRET of Cbl-b interaction with UbcH5B-Ub
# Type: biochemical
# APPLIED CONDITIONS: assay buffer with 100 mM NaCl, 60 nM Src kinase; read-out: Cbl-b activity IC50
Reported IC50 values for the following molecules.

Lab note: measured IC50 of Cn1cnnc1CC1(c2cccc(N3Cc4c(cc(CN5[C@@H]6CC[C@H]5C[C@@H](F)C6)cc4C(F)(F)F)C3=O)c2)COC1 [Example 557] was < 100 nM

According to the records, this molecule Cn1cnnc1CC1(c2cccc(N3Cc4c(cc(CN5Cc6cccc(F)c6C5)cc4C(F)(F)F)C3=O)c2)COC1 [Example 653] displays IC50 of < 100 nM

IC50 measured on CN1C2CCC1CN(c1cc3c(c(C(F)(F)F)c1)CN(c1cccc([C@@](C)(F)C(F)(F)c4nncn4C)c1)C3=O)C2 [Example 564] = < 100 nM

For C[C@H](Cc1nncn1C)c1cccc(NC(=O)c2cc(C(=O)N3CC(O)C(F)(F)C3)ccn2)c1 (stereo partly drawn) [Compound 243] the molecule record lists IC50 as 301 to 1000 nM

Per the record, C=CCC(Sc1nncn1C)c1cccc(NC(=O)c2cc3ccccc3cn2)c1 (stereo not drawn) [Compound 135] has IC50 of 1000 to 3000 nM

Per the record, COc1ccc2c(c1)CN(Cc1cc3c(c(C(F)(F)F)c1)CN(c1cccc(C4(Cc5nncn5C)COC4)c1)C3=O)CC2 [Example 661] has IC50 of < 100 nM

Documented IC50 of Cn1cnnc1CC1(c2cccc(NC(=O)c3cc(CN4CCC5CC54)cc(C4CC4)n3)c2)COC1 (stereo not drawn) [Compound 497] : < 100 nM
